# Measured Target: SpBbc1
# Experimental Details: SPOT peptide array binding signal intensity (averaged, normalized) (arbitrary units (background-subtracted, floor 0; scale differs between SH3 domains)); higher = stronger binding of the SH3 domain to the peptide
Measured Quantity: SPOT peptide array binding signal intensity

INSERT INTO measurements (binder, result_operator, measurement) VALUES
  ('FPPKRKPLLRPQRSD', '=', 37),
  ('MARRRLPDRPPNGIG', '=', 43.8),
  ('GDHPKGPPPPPPPPD', '≤', 0),
  ('QPQRTAPKPPISAPR', '=', 10);
